- Measurement Notes: Metabolic stability in mouse liver microsomes assessed as compound remaining after 30 mins
- Assay type: ADME, microsome
- Conditions Used: read-out: Stability
Experimental Readout: remaining at 0.5 h (%)
Entry rule: numbers only, all in %.

Assign remaining at 0.5 h to the following record: "Nc1cc(C(F)F)c(-c2nc(N3C4CCC3COC4)nc(N3C4CCC3COC4)n2)cn1"
70.2

====

- System: COX1 (Prostaglandin G/H synthase 1) (Homo sapiens)
- Sequence (P23219 whole entry): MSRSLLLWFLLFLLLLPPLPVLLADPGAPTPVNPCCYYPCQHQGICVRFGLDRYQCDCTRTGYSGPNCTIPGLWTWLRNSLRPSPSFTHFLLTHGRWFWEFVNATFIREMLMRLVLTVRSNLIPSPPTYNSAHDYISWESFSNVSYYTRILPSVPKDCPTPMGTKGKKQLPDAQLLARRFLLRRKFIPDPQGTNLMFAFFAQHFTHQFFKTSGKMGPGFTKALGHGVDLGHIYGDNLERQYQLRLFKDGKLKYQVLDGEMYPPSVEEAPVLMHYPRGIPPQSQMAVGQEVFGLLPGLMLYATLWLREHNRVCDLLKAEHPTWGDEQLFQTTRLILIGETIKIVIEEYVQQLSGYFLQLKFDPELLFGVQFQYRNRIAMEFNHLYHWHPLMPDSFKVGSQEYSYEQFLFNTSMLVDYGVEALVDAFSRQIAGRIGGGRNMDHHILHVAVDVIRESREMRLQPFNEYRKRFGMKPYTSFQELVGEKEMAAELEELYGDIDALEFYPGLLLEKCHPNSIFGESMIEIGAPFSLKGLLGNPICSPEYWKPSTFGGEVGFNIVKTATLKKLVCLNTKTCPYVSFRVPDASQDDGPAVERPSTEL
- Measurement Notes: Inhibition of recombinant human COX1 at 10 uM using arachidonic acid/ADHP as substrate by fluorometric method relative to control
- Conditions Used: recombinant human COX1, probe arachidonic acid/ADHP
Experimental Readout: inhibition at 10 µM

# return recorded inhibition at 10 µM for entry "Nc1cc(C(F)F)c(-c2nc(N3C4CCC3COC4)nc(N3C4CCC3COC4)n2)cn1"
< 50%

====

# pKi listing for each entry below
- System: Phosphatidylinositol 4,5-bisphosphate 3-kinase catalytic subunit alpha isoform (Homo sapiens, UniProt P42336)
- Sequence (P42336 whole entry, canonical isoform): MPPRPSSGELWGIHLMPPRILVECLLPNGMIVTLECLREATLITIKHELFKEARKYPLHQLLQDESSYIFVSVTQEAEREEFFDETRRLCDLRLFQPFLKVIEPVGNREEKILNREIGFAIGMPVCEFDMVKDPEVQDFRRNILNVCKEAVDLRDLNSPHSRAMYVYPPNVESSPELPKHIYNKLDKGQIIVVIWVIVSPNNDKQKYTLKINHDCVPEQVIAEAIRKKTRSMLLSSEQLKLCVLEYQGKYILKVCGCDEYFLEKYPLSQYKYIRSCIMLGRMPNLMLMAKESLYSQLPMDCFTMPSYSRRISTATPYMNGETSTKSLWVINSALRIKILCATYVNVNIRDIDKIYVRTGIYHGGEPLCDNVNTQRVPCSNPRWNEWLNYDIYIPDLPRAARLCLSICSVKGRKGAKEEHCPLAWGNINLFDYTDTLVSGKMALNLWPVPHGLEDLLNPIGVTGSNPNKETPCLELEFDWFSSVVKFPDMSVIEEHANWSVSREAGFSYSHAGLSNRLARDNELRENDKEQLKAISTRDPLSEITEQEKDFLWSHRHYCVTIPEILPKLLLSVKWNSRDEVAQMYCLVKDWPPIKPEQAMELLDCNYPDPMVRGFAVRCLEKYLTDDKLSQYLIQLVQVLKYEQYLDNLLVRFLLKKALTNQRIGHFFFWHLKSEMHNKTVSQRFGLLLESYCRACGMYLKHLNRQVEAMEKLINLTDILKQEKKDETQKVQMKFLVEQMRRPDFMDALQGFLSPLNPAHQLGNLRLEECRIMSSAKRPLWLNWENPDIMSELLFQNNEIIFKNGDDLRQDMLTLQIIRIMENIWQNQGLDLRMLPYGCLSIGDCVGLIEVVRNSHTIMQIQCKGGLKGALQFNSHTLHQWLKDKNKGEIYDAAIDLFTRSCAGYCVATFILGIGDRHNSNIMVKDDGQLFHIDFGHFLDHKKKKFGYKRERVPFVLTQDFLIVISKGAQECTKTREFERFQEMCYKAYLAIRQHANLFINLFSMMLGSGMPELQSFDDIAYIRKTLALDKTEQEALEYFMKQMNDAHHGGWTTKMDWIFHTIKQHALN
Here pKi is given on a logarithmic scale as minus log10 of the concentration in mol/L.

// worked examples, pKi included
Query Smiles: C[C@@H]1COCCN1c1nc(-c2cnc(N)cc2C(F)F)nc(N2CCOC[C@H]2C)n1
Experimental Readout: pKi
Experimental Result: 6.20
//
Query Smiles: Nc1cc(C(F)F)c(-c2nc(N3C[C@H]4C[C@@H]3CO4)nc(N3C[C@H]4C[C@@H]3CO4)n2)cn1
Experimental Readout: pKi
Experimental Result: 5.33

In one line, give reported pKi of the entry "CC1(C)CN(c2nc(-c3cnc(N)cc3C(F)F)nc(N3CCOC(C)(C)C3)n2)CCO1" .
5.06

Fill in pKi for record "Nc1cc(C(F)F)c(-c2nc(N3CCOCC3)cc(N3CCOCC3)n2)cn1"
7.54

Specify pKi for "Nc1cc(C(F)F)c(-c2nc(N3C4COCC3COC4)nc(N3C4COCC3COC4)n2)cn1" and stop.
5.62

Look up and report measured pKi for this entry: "Nc1cc(C(F)F)c(-c2nc(N3C4CCC3COC4)cc(N3C4CCC3COC4)n2)cn1"
5.65

====

Here's a batch of molecules along with measured Ki for Serine/threonine-protein kinase mTOR (Homo sapiens, UniProt P42345).
Give just the numeric value; µM need not be written.

Provide the reported Ki (system: Serine/threonine-protein kinase mTOR (Homo sapiens, UniProt P42345)) for "Nc1cc(C(F)F)c(-c2nc(N3C4CCCC3COC4)nc(N3C4CCCC3COC4)n2)cn1"
0.0602

Jot down Ki (Serine/threonine-protein kinase mTOR (Homo sapiens, UniProt P42345)) of "Nc1cc(C(F)F)c(-c2nc(N3C4COCC3C4)nc(N3C4COCC3C4)n2)cn1" .
0.551

Send back Serine/threonine-protein kinase mTOR (Homo sapiens, UniProt P42345) Ki of "Nc1cc(C(F)F)c(-c2cc(N3CCOCC3)nc(N3CCOCC3)n2)cn1" only.
0.035

State measured Ki of the molecule "Nc1cc(CF)c(-c2nc(N3CCOCC3)nc(N3CCOCC3)n2)cn1" with Serine/threonine-protein kinase mTOR (Homo sapiens, UniProt P42345).
0.0543
